- experimental_parameters: in isobutanol, 288.15 K
outcome_measure: solubility (mole fraction)

Which solubility (mole fraction) is reported for this compound? Nc1cc(Cl)ccc1[N+](=O)[O-]
0.0129

----------
- experimental_parameters: in n-propanol, 323.15 K
outcome_measure: solubility (mole fraction)

solubility (mole fraction) lookup needed for Nc1cc(Cl)ccc1[N+](=O)[O-] , thanks.
0.0517

----------
- experimental_parameters: in 2-butanone, 298.15 K
outcome_measure: solubility (mole fraction)
// print number alone

Need solubility (mole fraction), item Nc1cc(Cl)ccc1[N+](=O)[O-]
0.173

----------
- experimental_parameters: in acetonitrile, 298.15 K
outcome_measure: solubility (mole fraction)
Answer as a number with no unit attached.

Returns the measured solubility (mole fraction) for the input compound. Input: Nc1cc(Cl)ccc1[N+](=O)[O-]
0.0519

----------
- experimental_parameters: in n-propanol, 288.15 K
outcome_measure: solubility (mole fraction)
Just the number, please.

So what's the measured solubility (mole fraction) for this one? Nc1cc(Cl)ccc1[N+](=O)[O-]
0.0184

----------
- experimental_parameters: in n-butanol, 313.15 K
outcome_measure: solubility (mole fraction)
Lab note: jot down the number only; don't add units.

Given the compound Nc1cc(Cl)ccc1[N+](=O)[O-] , what is its reported solubility (mole fraction)?
0.0426

----------
- experimental_parameters: in water, 313.15 K
outcome_measure: solubility (mole fraction)
The answer should be written as a number, with no unit following it.

Form field: reported solubility (mole fraction) of Nc1cc(Cl)ccc1[N+](=O)[O-]
3.53e-05

----------
- experimental_parameters: in methyl acetate, 308.15 K
outcome_measure: solubility (mole fraction)
Lab note: record just the number, no unit beside it.

Reported solubility (mole fraction), compound Nc1cc(Cl)ccc1[N+](=O)[O-] : ____
0.162

----------
- experimental_parameters: in isopropanol, 323.15 K
outcome_measure: solubility (mole fraction)

Can you share its solubility (mole fraction)? I mean this compound: Nc1cc(Cl)ccc1[N+](=O)[O-]
0.0539

----------
- experimental_parameters: in acetone, 288.15 K
outcome_measure: solubility (mole fraction)

Need solubility (mole fraction) of Nc1cc(Cl)ccc1[N+](=O)[O-] , thanks.
0.141

----------
- experimental_parameters: in ethyl acetate, 313.15 K
outcome_measure: solubility (mole fraction)
API note: the answer field is a bare number with no unit suffix.

# lookup: solubility (mole fraction) of Nc1cc(Cl)ccc1[N+](=O)[O-]
0.174

----------
- experimental_parameters: in water, 318.15 K
outcome_measure: solubility (mole fraction)

If you can, please state the reported solubility (mole fraction) value of Nc1cc(Cl)ccc1[N+](=O)[O-] .
4.25e-05

----------
- experimental_parameters: in methyl acetate, 293.15 K
outcome_measure: solubility (mole fraction)
Give the value as a plain number.

What solubility (mole fraction) value was documented for this compound, Nc1cc(Cl)ccc1[N+](=O)[O-] ?
0.12

----------
- experimental_parameters: in 2-butanone, 293.15 K
outcome_measure: solubility (mole fraction)

Look up solubility (mole fraction) for this molecule: Nc1cc(Cl)ccc1[N+](=O)[O-]
0.164

----------
- experimental_parameters: in ethyl acetate, 323.15 K
outcome_measure: solubility (mole fraction)
Answer using only a numeral; do not append any unit.

Fill blank: measured solubility (mole fraction) of the molecule Nc1cc(Cl)ccc1[N+](=O)[O-] is ____.
0.24

----------
- experimental_parameters: in n-butanol, 293.15 K
outcome_measure: solubility (mole fraction)

Endpoint output: solubility (mole fraction) of Nc1cc(Cl)ccc1[N+](=O)[O-] . Value?
0.0246
